testMethodNotes: Determination of pKa of formulated lipids (TNS fluorescence assay in lipid nanoparticles)
Assay type: physicochemical
protocolConditions: Table 1; cationic lipid formulated in LNP (cationic lipid/DSPC/cholesterol/PEG-lipid 50/10/38.5/1.5 mol%), TNS fluorescence, pH giving half-maximal fluorescence; read-out: pKa
resultType: pKa
Just the number.

input: Give its pKa value. Item: CCCCCCCCCCN(C(=O)CCCN(C)C)C(CCCCCCCCCOC(=O)C(CCCC)CCCCCC)CCCCCCCCCOC(=O)C(CCCC)CCCCCC (stereo not shown)
output: 6.41
